Just for reference, ChEMBL document CHEMBL3259753 is where these values come from.

Parameter IC50: see the listing below.
- Tested on: Hepatitis B virus
- protocolNotes: Antiviral activity against HBV infected in human HepG2.2.15 cells assessed as inhibition of hepatitis B surface antigen secretion by ELISA
- Assay type: functional, organism-based
- assayConditions: HepG2 2.2.15
attributeMeasured: IC50 (µM)

>>> obsvalue("C=C1CC[C@@H]2[C@](C)(CO)[C@H](O)CC[C@@]2(C)[C@@H]1/C=C/C1=CC(CO)(CO)OC1=O")
74
>>> obsvalue("C=C1CC[C@@H]2[C@](C)(COC(=O)CCCC)[C@H](OC(=O)CCCC)CC[C@@]2(C)[C@@H]1C/C=C1\\C=COC1=O")
1010
>>> obsvalue("C=C1CC[C@@H]2[C@](C)(COC(=O)/C=C/c3ccccc3)[C@H](O)CC[C@@]2(C)[C@@H]1C/C=C1\\C=COC1=O")
210

----------
- protocolNotes: Cytotoxicity against human HepG2.2.15 cells by MTT assay
- Assay type: cell-based, HepG2 2.2.15
Parameter CC50: see the listing below.
attributeMeasured: CC50 (µM)

>>> obsvalue("C=C1CC[C@@H]2[C@](C)(COC(=O)CCCC)[C@H](O)CC[C@@]2(C)[C@@H]1C/C=C1\\C=COC1=O")
225
>>> obsvalue("C=C1CC[C@H]2[C@@](C)(CCC(=O)[C@@]2(C)C=O)[C@@H]1C/C=C1/C(=O)OC[C@H]1O")
155
>>> obsvalue("C=C1CC[C@@H]2[C@](C)(COC(=O)/C=C/c3cccc(Cl)c3)[C@H](O)CC[C@@]2(C)[C@@H]1/C=C/C1=CCOC1=O")
147
>>> obsvalue("C=C1CC[C@@H]2[C@](C)(CO)[C@H](OC(=O)c3cccnc3)CC[C@@]2(C)[C@@H]1C/C=C1\\C=COC1=O")
337
>>> obsvalue("C=C1CC[C@@H]2[C@](C)(COC(=O)c3ccccc3C(=O)O)[C@H](O)CC[C@@]2(C)[C@@H]1C/C=C1\\C=COC1=O")
450

----------
- protocolNotes: Selectivity index, ratio of CC50 for human HepG2.2.15 cells to IC50 for HBV infected in human HepG2.2.15 cells assessed as inhibition of DNA replication
- Assay type: functional
Parameter Ratio CC50/IC50: see the listing below.
attributeMeasured: Ratio CC50/IC50

>>> obsvalue("C=C1CC[C@@H]2[C@](C)(COC(C)=O)[C@H](O)CC[C@@]2(C)[C@@H]1C/C=C1\\C=COC1=O")
7.6
>>> obsvalue("C=C1CC[C@H]2[C@@](C)(CCC(=O)[C@@]2(C)C=O)[C@@H]1/C=C/C1=CCOC1=O")
1.1
>>> obsvalue("C=C1CC[C@@H]2[C@](C)(CO)[C@H](OC(=O)c3cccnc3)CC[C@@]2(C)[C@@H]1C/C=C1\\C=COC1=O")
8.8
>>> obsvalue("C=C1CC[C@@H]2[C@](C)(CO)[C@H](O)CC[C@@]2(C)[C@@H]1/C=C/C1=CCOC1=O")
8.7
>>> obsvalue("C=C1CC[C@@H]2[C@](C)(COC(=O)c3ccco3)[C@H](O)CC[C@@]2(C)[C@@H]1/C=C/C1=CCOC1=O")
9.9
>>> obsvalue("C=C1CC[C@@H]2[C@](C)(CO)[C@H](OC(=O)c3ccco3)CC[C@@]2(C)[C@@H]1C/C=C1\\C=COC1=O")
1.7

----------
- System: Hepatitis B virus
- protocolNotes: Antiviral activity against HBV infected in human HepG2.2.15 cells assessed as inhibition of hepatitis B surface antigen secretion by ELISA
- Type: functional, organism-based
- assayConditions: HepG2 2.2.15
Parameter IC50: see the listing below.
attributeMeasured: IC50

>>> obsvalue("C=C1CC[C@@H]2[C@](C)(COC(=O)c3cccnc3)[C@H](OC(=O)c3cccnc3)CC[C@@]2(C)[C@@H]1/C=C/C1=CCOC1=O")
"> 1920 µM"
>>> obsvalue("C=C1CC[C@@H]2[C@](C)(COC(=O)/C=C/c3cc(OC)c(OC)c(OC)c3)[C@H](OC(=O)/C=C/c3cc(OC)c(OC)c(OC)c3)CC[C@@]2(C)[C@@H]1C/C=C1\\C=COC1=O")
"> 1830 µM"
>>> obsvalue("C=C1CC[C@@H]2[C@](C)(COC(=O)c3cccnc3OC)[C@H](O)CC[C@@]2(C)[C@@H]1/C=C/C1=CCOC1=O")
"> 2310 µM"

----------
- Tested on: Hepatitis B virus
- protocolNotes: Antiviral activity against HBV infected in human HepG2.2.15 cells assessed as inhibition of DNA replication
- Type: functional, organism-based
- assayConditions: HepG2 2.2.15
Parameter IC50: see the listing below.
attributeMeasured: IC50

>>> obsvalue("C=C1CC[C@@H]2[C@](C)(COC(=O)c3cccnc3)[C@H](OC(=O)c3cccnc3)CC[C@@]2(C)[C@@H]1/C=C/C1=CCOC1=O")
"> 664 µM"
>>> obsvalue("C=C1CC[C@@H]2[C@](C)(COC(=O)COCC(=O)O)[C@H](OC(=O)COCC(=O)O)CC[C@@]2(C)[C@@H]1/C=C/C1=CCOC1=O")
"> 483 µM"
>>> obsvalue("C=C1CC[C@@H]2[C@](C)(COC(=O)/C=C/c3cccc(OC)c3)[C@H](O)CC[C@@]2(C)[C@@H]1/C=C/C1=CCOC1=O")
"> 513 µM"
>>> obsvalue("C=C1CC[C@@H]2[C@](C)(COC(=O)CCCC(=O)O)[C@H](OC(=O)CCCC(=O)O)CC[C@@]2(C)[C@@H]1/C=C/C1=CCOC1=O")
"> 429 µM"

----------
Parameter CC50: see the listing below.
- protocolNotes: Cytotoxicity against human HepG2.2.15 cells by MTT assay
- Format: cell-based, HepG2 2.2.15
attributeMeasured: CC50

>>> obsvalue("C=C1CC[C@@H]2[C@](C)(COC(=O)/C=C/c3cc(OC)c(OC)c(OC)c3)[C@H](O)CC[C@@]2(C)[C@@H]1/C=C/C1=CCOC1=O")
"> 1710 µM"
>>> obsvalue("C=C1CC[C@@H]2[C@](C)(COC(=O)c3ccco3)[C@H](O)CC[C@@]2(C)[C@@H]1C/C=C1\\C=COC1=O")
"> 2150 µM"
>>> obsvalue("C=C1CC[C@@H]2[C@](C)(COC(=O)c3ccccc3C(=O)O)[C@H](OC(=O)c3ccccc3C(=O)O)CC[C@@]2(C)[C@@H]1C/C=C1\\C=COC1=O")
"> 2040 µM"
>>> obsvalue("C=C1CC[C@@H]2[C@](C)(COC(=O)c3cccs3)[C@H](OC(=O)c3cccs3)CC[C@@]2(C)[C@@H]1/C=C/C1=CCOC1=O")
"> 1540 µM"
>>> obsvalue("C=C1CC[C@@H]2[C@](C)(COC(=O)/C=C/c3cc(OC)c(OC)c(OC)c3)[C@H](OC(=O)/C=C/c3cc(OC)c(OC)c(OC)c3)CC[C@@]2(C)[C@@H]1C/C=C1\\C=COC1=O")
"> 1830 µM"
>>> obsvalue("C=C1CC[C@@H]2[C@](C)(COC(=O)COCC(=O)O)[C@H](OC(=O)COCC(=O)O)CC[C@@]2(C)[C@@H]1/C=C/C1=CCOC1=O")
"> 1930 µM"
>>> obsvalue("C[C@H](Cn1cnc2c(N)ncnc21)OCP(=O)(O)O [TENOFOVIR ANHYDROUS]")
"> 1720 µM"
>>> obsvalue("C=C1CC[C@@H]2[C@](C)(COC(=O)c3cccnc3)[C@H](OC(=O)c3cccnc3)CC[C@@]2(C)[C@@H]1/C=C/C1=CCOC1=O")
"> 1920 µM"
>>> obsvalue("C=C1CC[C@@H]2[C@](C)(COC(=O)CCCC(=O)O)[C@H](OC(=O)CCCC(=O)O)CC[C@@]2(C)[C@@H]1/C=C/C1=CCOC1=O")
"> 1710 µM"

----------
Parameter Ratio CC50/IC50: see the listing below.
- protocolNotes: Selectivity index, ratio of CC50 for human HepG2.2.15 cells to IC50 for HBV infected in human HepG2.2.15 cells assessed as inhibition of DNA replication
- Type: functional
attributeMeasured: Ratio CC50/IC50

>>> obsvalue("C=C1CC[C@@H]2[C@](C)(COC(=O)/C=C/c3cc(OC)c(OC)c(OC)c3)[C@H](O)CC[C@@]2(C)[C@@H]1/C=C/C1=CCOC1=O")
">165.1"
>>> obsvalue("C=C1CC[C@@H]2[C@](C)(COC(=O)c3cccs3)[C@H](OC(=O)c3cccs3)CC[C@@]2(C)[C@@H]1/C=C/C1=CCOC1=O")
">8.3"
>>> obsvalue("C[C@H](Cn1cnc2c(N)ncnc21)OCP(=O)(O)O [TENOFOVIR ANHYDROUS]")
">2417.3"
>>> obsvalue("C=C1CC[C@@H]2[C@](C)(COC(=O)c3ccco3)[C@H](O)CC[C@@]2(C)[C@@H]1C/C=C1\\C=COC1=O")
">100.5"
